Values from the supplement of paper PMC10724198

System: Saccharomyces cerevisiae
Assay: protein stability index of tFT-peptide fusion (C-terminal peptide) (PSI (0-1 scale)); higher = more stable (slower turnover);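 note: PSI is a weighted mean of sequencing reads over stability bins, variants kept only with over 10 reads, mCherry proximal and sfGFP distal, peptide attached via GGGS linker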
Details: genetic background: wild type; temperature: 30 C
# protein stability index >= 0.7 gives condition met, anything below gives condition not met

sequence-content: LQATFRRHLNLV
assigned-class: condition not met

sequence-content: IPFEPSGPFMRN
assigned-class: condition met

sequence-content: TVRKMEKKKDGG
assigned-class: condition not met

sequence-content: LSVYFSLSLCVS
assigned-class: condition not met

sequence-content: PSRGPGRVAPCD
assigned-class: condition not met

sequence-content: YYFFLTFLCYVF
assigned-class: condition not met

sequence-content: RVAPITARLAPH
assigned-class: condition met

sequence-content: LPPLTSPSIVRG
assigned-class: condition met

sequence-content: LPSPHPPPPPLS
assigned-class: condition not met

sequence-content: FPWPDLPSLLPQ
assigned-class: condition met

sequence-content: VWFGGFVCSVLG
assigned-class: condition not met

sequence-content: FCFFLLGLFCNL
assigned-class: condition not met

sequence-content: VVGQGYDSGIRY
assigned-class: condition met

sequence-content: ARSGGYLMVVLV
assigned-class: condition not met

sequence-content: PPRLPPLPPSYP
assigned-class: condition met

sequence-content: PPPRLDTGAAQP
assigned-class: condition not met

sequence-content: HSRRCDGLPGWV
assigned-class: condition not met

sequence-content: LPPRTHSPLSSP
assigned-class: condition not met

sequence-content: PTRRVHRTPLFP
assigned-class: condition met

sequence-content: VSFRISAIFVCV
assigned-class: condition not met

sequence-content: GALVEGVFGHVR
assigned-class: condition not met

sequence-content: SPLPPPTPLPLV
assigned-class: condition met

sequence-content: CLCYAWVPAPLF
assigned-class: condition not met

sequence-content: SALLPSPGPPAF
assigned-class: condition not met

sequence-content: PSCFFPFPPRPL
assigned-class: condition met

sequence-content: PAPAPPPPAVPL
assigned-class: condition not met

sequence-content: VVWVCVRLPVRR
assigned-class: condition not met

sequence-content: HKAPLLQLTADM
assigned-class: condition not met

----------
Test system: Saccharomyces cerevisiae
Test: protein stability index of tFT-peptide fusion (C-terminal peptide) (PSI (0-1 scale)); higher = more stable (slower turnover)
Settings: genetic background: wild type; temperature: 37 C

sequence-content: LLLFTPFYLLLR
target-under-test: Saccharomyces cerevisiae
protein stability index: 0.219

sequence-content: FWCVFVFFVCVG
target-under-test: Saccharomyces cerevisiae
protein stability index: 0.349

sequence-content: LSRFGSTCPSGL
target-under-test: Saccharomyces cerevisiae
protein stability index: 0.748

sequence-content: AFVVYSGSHGLV
target-under-test: Saccharomyces cerevisiae
protein stability index: 0.719

sequence-content: FGRAVWSRFCIV
target-under-test: Saccharomyces cerevisiae
protein stability index: 0.177

sequence-content: LSVYFSLSLCVS
target-under-test: Saccharomyces cerevisiae
protein stability index: 0.429

sequence-content: LNSSVLRLRFFV
target-under-test: Saccharomyces cerevisiae
protein stability index: 0.152

sequence-content: LSAVISLRIQLS
target-under-test: Saccharomyces cerevisiae
protein stability index: 0.492

sequence-content: PLLPPLSTPPPA
target-under-test: Saccharomyces cerevisiae
protein stability index: 0.698

sequence-content: VFSRVLSVLLSA
target-under-test: Saccharomyces cerevisiae
protein stability index: 0.457

sequence-content: FFLFILYFGSCF
target-under-test: Saccharomyces cerevisiae
protein stability index: 0.448

sequence-content: VFFLVHFHLPMF
target-under-test: Saccharomyces cerevisiae
protein stability index: 0.536

sequence-content: LLHQSVHSHIPP
target-under-test: Saccharomyces cerevisiae
protein stability index: 0.691

sequence-content: YPFIPLIVCGFF
target-under-test: Saccharomyces cerevisiae
protein stability index: 0.448

sequence-content: KLALVYLLIRGL
target-under-test: Saccharomyces cerevisiae
protein stability index: 0.0975

sequence-content: SVFRFLFLALLV
target-under-test: Saccharomyces cerevisiae
protein stability index: 0.18

sequence-content: FLCLLASFVVCF
target-under-test: Saccharomyces cerevisiae
protein stability index: 0.336

sequence-content: AGALAVALPCIC
target-under-test: Saccharomyces cerevisiae
protein stability index: 0.48

sequence-content: LLVSVVFVSRFF
target-under-test: Saccharomyces cerevisiae
protein stability index: 0.444

sequence-content: FVVSCLSWVFLF
target-under-test: Saccharomyces cerevisiae
protein stability index: 0.127

sequence-content: YGWGFLFILTLM
target-under-test: Saccharomyces cerevisiae
protein stability index: 0.151

sequence-content: SCLRVYFSVVVS
target-under-test: Saccharomyces cerevisiae
protein stability index: 0.36

sequence-content: IFAWPFSATIPW
target-under-test: Saccharomyces cerevisiae
protein stability index: 0.788

sequence-content: CFGFMFLLLFDV
target-under-test: Saccharomyces cerevisiae
protein stability index: 0.418

sequence-content: VFCSVGVSLFFG
target-under-test: Saccharomyces cerevisiae
protein stability index: 0.512

sequence-content: LPVPARPFPPSS
target-under-test: Saccharomyces cerevisiae
protein stability index: 0.691

sequence-content: FPFFVFRVWFGA
target-under-test: Saccharomyces cerevisiae
protein stability index: 0.502

sequence-content: RPSHTSVYRLLH
target-under-test: Saccharomyces cerevisiae
protein stability index: 0.337

sequence-content: VYRRKLDRLLCI
target-under-test: Saccharomyces cerevisiae
protein stability index: 0.275

sequence-content: PRFLRWLFSLLI
target-under-test: Saccharomyces cerevisiae
protein stability index: 0.739

sequence-content: PPPLLVRPWFLV
target-under-test: Saccharomyces cerevisiae
protein stability index: 0.269

sequence-content: PPPPPPLPSPSS
target-under-test: Saccharomyces cerevisiae
protein stability index: 0.699

sequence-content: IFVLLSYYPLFV
target-under-test: Saccharomyces cerevisiae
protein stability index: 0.391

sequence-content: SSAPTIVIWRFS
target-under-test: Saccharomyces cerevisiae
protein stability index: 0.608

sequence-content: WGCIFWFFDVRV
target-under-test: Saccharomyces cerevisiae
protein stability index: 0.402

sequence-content: FNMLFVVRLLYM
target-under-test: Saccharomyces cerevisiae
protein stability index: 0.396

sequence-content: CHFLLPFLFTCA
target-under-test: Saccharomyces cerevisiae
protein stability index: 0.309

sequence-content: CVLGWCSLIAWC
target-under-test: Saccharomyces cerevisiae
protein stability index: 0.197

sequence-content: RRLAVWCDFRSL
target-under-test: Saccharomyces cerevisiae
protein stability index: 0.653

sequence-content: CWLFVWVRVISL
target-under-test: Saccharomyces cerevisiae
protein stability index: 0.158

sequence-content: VMRMVWVLGVMC
target-under-test: Saccharomyces cerevisiae
protein stability index: 0.35

----------
System: Saccharomyces cerevisiae
Assay: protein stability index of tFT-peptide fusion (C-terminal peptide) (PSI (0-1 scale)); higher = more stable (slower turnover)
Conditions: genetic background: wild type; temperature: 30 C
# protein stability index >= 0.7 gives 1, anything below gives 0

sequence-content: FWSCCCTLLFCV
target-under-test: Saccharomyces cerevisiae
assigned-class: 0

sequence-content: FVFSIPPPPRPL
target-under-test: Saccharomyces cerevisiae
assigned-class: 0

sequence-content: PSGGSQSLGRLG
target-under-test: Saccharomyces cerevisiae
assigned-class: 0

sequence-content: DIGCLWSKTRLC
target-under-test: Saccharomyces cerevisiae
assigned-class: 0

sequence-content: YVCLATLSSFSF
target-under-test: Saccharomyces cerevisiae
assigned-class: 0

sequence-content: GGRGPSAVGSGV
target-under-test: Saccharomyces cerevisiae
assigned-class: 1

sequence-content: GKTQLIKNIQNI
target-under-test: Saccharomyces cerevisiae
assigned-class: 0

sequence-content: MLYENNTAPLFI
target-under-test: Saccharomyces cerevisiae
assigned-class: 0

sequence-content: PRSPHPLPPTPP
target-under-test: Saccharomyces cerevisiae
assigned-class: 0

sequence-content: FPGVRNGSRFPP
target-under-test: Saccharomyces cerevisiae
assigned-class: 0

sequence-content: LPKSRIGPILNG
target-under-test: Saccharomyces cerevisiae
assigned-class: 1

sequence-content: PPPPPPPLPLLP
target-under-test: Saccharomyces cerevisiae
assigned-class: 0

sequence-content: GRQLNDSISTLK
target-under-test: Saccharomyces cerevisiae
assigned-class: 0
